These measurements were taken from PubChem BioAssay (NCATS).

TEST_DETAILS: qHTS of pediatric cancer cell lines to identify multiple opportunities for drug repurposing: Confirmatory screen for NB-EBc1 cells (AID 1347115);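 also: cells exposed to compound for 48 h before the viability read; nearly all actives have a fitted effect of over 45% in size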
MEASUREMENT_CONDITIONS: NB-EBc1 neuroblastoma cells, viability (cytotoxicity); series mostly up to 45.9 µM
Results filed as inconclusive are left out. Calls of active or inactive are those of the source. Calls follow the shape of the dose curve; as a rule, active = well fitted cell-killing curve with a large enough effect; inconclusive = small, poorly fitted or top-dose-only effect, or effect the other way; inactive = no such curve, though single readings can be large or run the other way.
Pick one: active, inactive

CCc1ccc(C2CCNCC2)cc1; inactive

Give the logged outcome of this assay for the following molecule: C[C@@H]1O[C@@H](O[C@@H]2C=C3CC[C@@H]4[C@H](CC[C@]5(C)[C@@H](c6ccc(=O)oc6)CC[C@]45O)[C@@]3(C)CC2)[C@H](O)[C@H](O)[C@H]1O
active

Give the logged outcome of this assay for the following molecule: CCCCCCCCC(=O)NCc1ccc(O)c(OC)c1
inactive
